- measured.on: hCMV gH + gL + UL128 + UL130 + UL131A (co-expressed in HEK293T cells) (human cytomegalovirus), P12824
- test.name: competitor: 8C15-biotin; cell staining
- settings: remark: other sources report otherwise
Kindly supply the reported Inhibition of binding (%) values for the records listed here.
Numeric answer only, unit % assumed.

The binder listed as 9I6 (antibody, V domains shown) VH: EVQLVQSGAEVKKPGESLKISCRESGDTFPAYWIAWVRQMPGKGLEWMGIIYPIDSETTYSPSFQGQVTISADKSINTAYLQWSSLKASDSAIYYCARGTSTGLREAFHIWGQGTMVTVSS VL: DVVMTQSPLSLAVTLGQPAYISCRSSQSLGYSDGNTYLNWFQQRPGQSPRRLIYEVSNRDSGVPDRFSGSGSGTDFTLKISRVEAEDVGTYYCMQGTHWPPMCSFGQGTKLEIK shows Inhibition of binding (%) equal to 100

Please fill in: Inhibition of binding (%) reported for 8J16 (antibody, V domains shown) VH: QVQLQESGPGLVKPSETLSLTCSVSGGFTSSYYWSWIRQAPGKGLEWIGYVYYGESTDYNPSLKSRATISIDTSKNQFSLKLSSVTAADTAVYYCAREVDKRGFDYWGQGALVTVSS VL: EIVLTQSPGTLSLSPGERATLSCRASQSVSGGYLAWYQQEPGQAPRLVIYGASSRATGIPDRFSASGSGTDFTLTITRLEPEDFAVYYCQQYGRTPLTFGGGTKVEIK = 100

Memo: 8C15 (antibody, V domains shown) VH: QVQLQESGPGLVKPSETLSLTCTVSGGSIRSYYWSWIRQPPGKGLEWIGHIYYSGNTNYSPSLQSRVTISLDTPKNQFSLRLSSVTAADTAVYYCARHDVIVVRGVFDVWGQGTVVTVSS VL: QSALTQPASVSGSPGQSITISCTGTSSDIGTYNLVSWYQQHPGKAPKVLIYDGSKRPSGVSSRFSASKSGNTASLTISGLQAEDETDYYCCSYAGTSDFFVVFGGGTKLTVL , reported Inhibition of binding (%): 100

Inhibition of binding (%) reported for this binder 2C12 (antibody, V domains shown) VH: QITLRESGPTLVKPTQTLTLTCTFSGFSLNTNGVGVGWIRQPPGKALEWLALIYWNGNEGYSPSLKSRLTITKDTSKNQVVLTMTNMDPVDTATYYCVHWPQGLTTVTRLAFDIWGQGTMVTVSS VL: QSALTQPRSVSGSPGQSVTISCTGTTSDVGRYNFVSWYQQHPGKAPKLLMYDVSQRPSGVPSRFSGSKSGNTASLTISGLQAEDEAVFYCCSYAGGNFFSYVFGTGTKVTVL : 100

So, 7I13 (antibody, V domains shown) VH: QVQLVESGGGVVQPGRSLRLSCAASGFTFSNYGMHWVRQGPGKGLEWVAVISYDASSKYYTDSVQGRFTISRDNSKNTLFLQMNSLRGEDTAVYYCAKALRYLDWFLSDPFDYWGQGTLVTVSS VL: EIVLTQSPGTLSLSPGERATLSCRASQSVSSDFLAWYQQKPGQAPRLLIYGASSRATGIPDRFSGSGSGTDFTLTISRLEPEDFAVYYCQQYAASPPFGQGTRLEIK ? Its Inhibition of binding (%) was 0

// recorded Inhibition of binding (%) for 7B13 (antibody, V domains shown) VH: QVQLVESGGGVVQPGGSLRLSCAASGFSFSNYGMHWVRQAPGKGLEWVALIPSDGNYQYYTDSVKGRFTVSRDNSRNTLYLQMKSLRAEDTARYHCAHLGGGLFDFWGQGTLVTVSS VL: QSALNQPRSVSGSPGQSVSISCTGSSSDVGGYEFVSWYQHHPGKAPKLIIYDVDKRPSGVPDRFSGSRSGDTASLTISGLQAEDEADYYCYSSADTWVFGGGTKLTVL : 100
